# Lookup of reported TGI keyed by entry
System: OVCAR-4 ovarian
Assay: NCI tumour cell line growth inhibition, 48 h

Molecule | Target desc | TGI
COc1ccc(C2C(Cl)C(=O)N2NC(=O)Cc2ccccc2)cc1OC (stereo not drawn) | OVCAR-4 ovarian | > 100 µM
N#C/C(=C\c1ccccc1Br)C(=O)c1ccccc1 | OVCAR-4 ovarian | 58.8 µM
Cc1sc2ncn(Cc3ccc(Cl)c(Cl)c3)c(=O)c2c1C | OVCAR-4 ovarian | 68.9 µM
O=C(NCCCCOCC#Cc1ccccc1C#CCS(=O)(=O)c1ccccc1)c1cc2ccccc2[nH]1 | OVCAR-4 ovarian | 22.7 µM
COc1cccc(-c2cc(=O)c3cc(Cl)cnc3[nH]2)c1 | OVCAR-4 ovarian | 76.3 µM
COP(C)(=O)C(Cc1c[nH]c2ccccc12)NC(=O)OCc1ccccc1 (stereo not drawn) | OVCAR-4 ovarian | > 100 µM
O=C(NN=C1CCCCC1)NN=C1CCCCC1 | OVCAR-4 ovarian | > 100 µM
Nc1nc(N)c(-c2ccccc2)c(CCC(=O)Nc2ccc(Cl)cc2)n1 | OVCAR-4 ovarian | > 100 µM
ClCC#CCSc1ncnc2c1ncn2CC#CCCl | OVCAR-4 ovarian | 8.29 µM
O=c1c2c3c(sc2n2c(-c4ccc(Br)cc4)nnc2n1Cc1ccccc1)CCCC3 | OVCAR-4 ovarian | 22.4 µM
O=[N+]([O-])c1cc(F)c2cccnc2c1O | OVCAR-4 ovarian | 65.5 µM
CCCCCCNC(=O)Oc1ccc(/C(=C(\C)c2ccccc2)c2ccc(OCCN(CC)CC)cc2)cc1 | OVCAR-4 ovarian | 11.9 µM
CC1(C)c2ccccc2C(O)C12CCC(=O)CC2 (stereo not drawn) | OVCAR-4 ovarian | > 100 µM
NCP(=O)(O)OCC(=O)O | OVCAR-4 ovarian | > 100 µM
CC(/C=N/NC1=NCCCN1)=N\NC1=NCCCN1 | OVCAR-4 ovarian | > 100 µM
Cc1ccc2c(c1)C(=O)c1c-2n(CCCN=[N+]=[N-])c(=O)c2cc([N+](=O)[O-])ccc12 | OVCAR-4 ovarian | 74.2 µM
Nc1ccc(-c2nc3ccccc3s2)cc1Br | OVCAR-4 ovarian | > 100 µM
N#Cc1cccc(OCc2ccccc2COc2cccc(C#N)c2)c1 | OVCAR-4 ovarian | > 100 µM
Oc1c(CN2CCOCC2)cc(COCc2ccccc2)c2cccnc12 | OVCAR-4 ovarian | > 100 µM
CCCn1c(N)c(C(=O)CNc2ccc(I)cc2)c(=O)[nH]c1=O | OVCAR-4 ovarian | > 100 µM
CC(=O)O[C@H]1CC[C@H]2[C@@H]3CCC(C(C)=O)[C@H](C(=O)O)[C@H]3CC[C@]12C (stereo partly drawn) | OVCAR-4 ovarian | > 100 µM
C#CCN(C)C(=O)N(CC#C)N=O | OVCAR-4 ovarian | > 100 µM
CC1CN=C(c2ccc(COc3ccc(C4=NCC(C)N4)cc3)cc2)N1 (stereo not drawn) | OVCAR-4 ovarian | > 100 µM
